Data origin, for the record: the supplement of paper PMC11732987

# assay_target: USP39 (UniProt Q53GS9)
# Sequence (whole entry): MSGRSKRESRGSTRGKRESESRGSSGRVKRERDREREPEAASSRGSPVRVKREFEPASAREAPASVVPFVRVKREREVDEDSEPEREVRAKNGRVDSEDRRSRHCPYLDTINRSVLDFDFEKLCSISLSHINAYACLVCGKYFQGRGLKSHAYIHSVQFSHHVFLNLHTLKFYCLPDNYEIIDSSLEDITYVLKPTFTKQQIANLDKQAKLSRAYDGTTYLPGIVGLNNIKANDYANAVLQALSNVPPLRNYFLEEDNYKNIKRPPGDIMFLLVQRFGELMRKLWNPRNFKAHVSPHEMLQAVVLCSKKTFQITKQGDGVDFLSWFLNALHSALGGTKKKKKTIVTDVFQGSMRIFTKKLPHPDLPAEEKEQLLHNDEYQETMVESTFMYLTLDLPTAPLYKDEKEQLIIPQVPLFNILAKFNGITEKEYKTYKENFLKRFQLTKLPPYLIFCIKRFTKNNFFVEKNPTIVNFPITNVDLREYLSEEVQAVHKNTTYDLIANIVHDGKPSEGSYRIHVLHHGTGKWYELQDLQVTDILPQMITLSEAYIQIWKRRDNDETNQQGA
# assay: log2 ratio of Biotin-Ahx-Ub-VS probe labelling (fragment/DMSO); higher = less target engagement (more negative = stronger competition), active = hit call of the paper (q ≤ 0.05, log2 ratio ≤ -1)
# test_settings: compound concentration: 200 uM; treatment time: 3 h
Quick rule for you: log2 ratio of Biotin-Ahx-Ub-VS probe labelling at 0.03 or higher means criterion met, lower means criterion not met.

Solved entries:
compound: O=C(CCl)N1CCc2sccc2C1
cat: criterion not met
--
compound: O=C(CCl)Nc1cccc(NC(=O)c2ccccc2)c1
cat: criterion met
--
compound: O=C(CCl)N1CCc2nc[nH]c2C1c1ccc(Cl)cc1 (centres undefined)
cat: criterion met
--
compound: C[C@H]1CN(C(=O)CCl)CCN1C(=O)c1cnn(C)c1.Cl
cat: criterion met
--
compound: O=C(CCl)NCCC1=CCCCC1
cat: criterion met
--
compound: O=C(CCl)Nc1ccc(N2CCCC2=O)cc1
cat: criterion not met
--
compound: C[C@@H](NC(=O)CCl)c1cccc(C#N)c1
cat: criterion met
--
compound: Cc1ccccc1OCC(=O)N1CCN(C(=O)CCl)CC1
cat: criterion met

Is log2 ratio of Biotin-Ahx-Ub-VS probe labelling for CCC(NC(=O)CCl)c1ccc(Cl)cc1 (centres undefined) at or above 0.03? criterion not met

log2 ratio of Biotin-Ahx-Ub-VS probe labelling >= 0.03 for Cc1ccn2cc(CNC(=O)CCl)nc2c1.Cl ? criterion not met

Hi, just wondering whether Cc1cc(C2CCCN2C(=O)CCl)nn1C.Cl (centres undefined) shows log2 ratio of Biotin-Ahx-Ub-VS probe labelling of 0.03 or higher. criterion not met

Reported log2 ratio of Biotin-Ahx-Ub-VS probe labelling at or above 0.03? O=C(CCl)N1CCCCCC1c1ncon1 (centres undefined) criterion not met

Is log2 ratio of Biotin-Ahx-Ub-VS probe labelling at least 0.03? Consider CN(Cc1nc2ccccc2[nH]1)C(=O)CCl.Cl criterion met

Could you tell me if the measured log2 ratio of Biotin-Ahx-Ub-VS probe labelling of Cl.O=C(CCl)NCc1ccnc(Oc2ccccc2F)c1 reaches 0.03 or more? criterion met

Check this compound for log2 ratio of Biotin-Ahx-Ub-VS probe labelling at or above 0.03: O=C(CCl)N1CCC(C(O)c2ccc(F)cc2)CC1 (centres undefined) criterion met

Please tell me: is the compound O=C(CCl)NCCc1ccc(F)cc1 at or over 0.03 in terms of log2 ratio of Biotin-Ahx-Ub-VS probe labelling? criterion met

Answer whether log2 ratio of Biotin-Ahx-Ub-VS probe labelling of CCCn1nccc1NC(=O)CCl is greater than or equal to 0.03. criterion not met

Quick check: does O=C(CCl)Nc1cc(Cl)ccc1-n1cncn1 have log2 ratio of Biotin-Ahx-Ub-VS probe labelling greater than or equal to 0.03? criterion met

hey, is log2 ratio of Biotin-Ahx-Ub-VS probe labelling for this one >= 0.03? Cc1ccc(-c2nnc(C)[nH]2)c(NC(=O)CCl)c1 criterion met

# check: log2 ratio of Biotin-Ahx-Ub-VS probe labelling of O=C(CCl)N1CCC[C@@H]1c1ccon1 is greater than or equal to 0.03 criterion met
